The reported measurements were obtained from patent US7176195B2.

Provide the recorded pEC50 for the entries that follow.
molecular target: V2 receptor (Homo sapiens, UniProt P30518); assay: Determination of V2 receptor agonist activity in vitro (cellular activation); type: cell-based; conditions: concentration of compound necessary to cause a half-maximal cellular activation
Sequence (P30518 whole entry): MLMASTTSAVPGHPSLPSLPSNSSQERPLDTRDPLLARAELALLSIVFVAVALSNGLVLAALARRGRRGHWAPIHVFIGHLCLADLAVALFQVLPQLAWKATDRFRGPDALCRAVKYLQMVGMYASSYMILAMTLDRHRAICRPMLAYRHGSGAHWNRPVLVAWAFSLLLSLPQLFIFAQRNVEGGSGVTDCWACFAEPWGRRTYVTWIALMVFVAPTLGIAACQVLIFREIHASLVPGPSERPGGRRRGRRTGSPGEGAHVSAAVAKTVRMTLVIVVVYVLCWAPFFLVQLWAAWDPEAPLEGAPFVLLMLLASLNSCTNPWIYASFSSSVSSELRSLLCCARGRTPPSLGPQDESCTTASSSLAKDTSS
The scale used: pEC50 is minus the common logarithm of the concentration in molar units.

# input Which pEC50 value is on record for Cc1cc(C(=O)N2CCCCc3sccc32)ccc1CNC(=O)Nc1c(F)c(F)cc(F)c1F [Example 27] ?
# output 7.64

# input Give its pEC50 value. Item: Cc1cc(C(=O)N2CCCN(Cc3cccnc3)c3ccccc32)ccc1CNC(=O)Nc1c(F)cccc1F [Example 16]
# output 7.80

# input Find the recorded pEC50 belonging to O=C(c1ccc(CNC(=S)Nc2c(F)cccc2F)c(Cl)c1)N1CCCCc2ccccc21 [Example 6] and report it.
# output 7.33

# input Need pEC50 of Cc1cc(C(=O)N2CCCCc3ccccc32)ccc1CNC(=O)Nc1ccc[nH]c1=O [Example 9] , thanks.
# output 7.30

# input # pEC50 lookup, item COc1cccc(NC(=O)NCc2ccc(C(=O)N3CCCCc4ccccc43)cc2Cl)c1 [Example 4]
# output 6.52

# input What measured pEC50 goes with Cc1cc(C(=O)N2CCCCc3ccccc32)ccc1CNC(=O)Nc1c(F)cccc1F [Example 10] ?
# output 8.40

# input Look up pEC50 for this compound: O=C(NCc1ccc(C(=O)N2CCCCc3ccccc32)cc1Cl)Nc1ccccc1Cl [Example 5]
# output 6.82

# input pEC50 lookup needed for O=C(NCc1ccc(C(=O)N2CCCCc3ccccc32)cn1)Nc1c(F)cccc1F [Example 3] , thanks.
# output 6.52
